measured.on: PhENR (Pyrococcus horikoshii)
Sequence (O58586 whole entry): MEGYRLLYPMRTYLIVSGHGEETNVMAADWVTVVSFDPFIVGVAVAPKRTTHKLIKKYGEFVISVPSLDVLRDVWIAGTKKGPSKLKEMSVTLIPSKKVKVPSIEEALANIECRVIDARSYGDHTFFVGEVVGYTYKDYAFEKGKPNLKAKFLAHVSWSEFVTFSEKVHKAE
test.protocol: UV-visible difference titration of ligands with PhENR
Format: binding
metric.name: pKd
pKd is a log-scale quantity: -log10 of the concentration expressed in molar.

compound | metric.name | numeric.value
O=Cc1ccc(O)cc1 [pHB, p-hydroxybenzaldehyde] | pKd | 4.44
O=C1C=CC(=O)C=C1 [1,4-benzoquinone] | pKd | 2.74

Now for the compound whose pKd we want.
Please look up its pKd: O=C1C=CCCC1 [Compound 1a, 2-Cyclohexen-1-one] 1.12

* * *

measured.on: TtENR (Thermus thermophilus)
Sequence (P83818 1-178): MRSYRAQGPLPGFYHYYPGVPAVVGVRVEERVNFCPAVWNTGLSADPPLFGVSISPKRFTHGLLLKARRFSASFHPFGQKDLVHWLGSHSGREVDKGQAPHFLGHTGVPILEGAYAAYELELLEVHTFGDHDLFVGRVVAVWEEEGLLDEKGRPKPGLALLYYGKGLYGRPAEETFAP
Kd values for the compounds below.
# number then unit; no other words

Please look up its Kd: "O=C1C=CCCC1" 40000 µM

Please look up its Kd: O=Cc1ccc(O)cc1 [pHB, p-hydroxybenzaldehyde] 25 µM

Please look up its Kd: "O=C1C=CC(=O)C=C1" 580 µM

* * *

measured.on: TtENR (Thermus thermophilus)
Sequence (P83818 1-178): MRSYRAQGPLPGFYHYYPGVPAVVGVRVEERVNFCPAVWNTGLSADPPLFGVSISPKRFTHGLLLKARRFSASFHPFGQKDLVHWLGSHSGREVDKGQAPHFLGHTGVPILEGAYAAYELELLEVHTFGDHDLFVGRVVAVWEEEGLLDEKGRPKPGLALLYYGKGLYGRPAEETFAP
test.protocol: Biocatalytic transformations with TtENR
Format: biochemical
run.conditions: substrate scope, Table 1
metric.name: acceptance as substrate

compound | result
CC(C)=CCCC(C)=CC=O (mixture of isomers) | good substrates
CC1=CC(=O)CC(C)(C)C1=O | good substrates
CC1CC(=O)N(c2ccccc2)C1=O (racemic) [Compound 5b, rac-N-phenyl-2-methylsuccinimide] | good substrates
CC/C=C(\C)C=O [Compound 3a, (E)-2-methylpent-2-enal] | good substrates
